Known pIC50 of a selection of compounds
Molecular target: P2X purinoceptor 7 (Homo sapiens, UniProt Q99572)
Sequence (Q99572 whole entry): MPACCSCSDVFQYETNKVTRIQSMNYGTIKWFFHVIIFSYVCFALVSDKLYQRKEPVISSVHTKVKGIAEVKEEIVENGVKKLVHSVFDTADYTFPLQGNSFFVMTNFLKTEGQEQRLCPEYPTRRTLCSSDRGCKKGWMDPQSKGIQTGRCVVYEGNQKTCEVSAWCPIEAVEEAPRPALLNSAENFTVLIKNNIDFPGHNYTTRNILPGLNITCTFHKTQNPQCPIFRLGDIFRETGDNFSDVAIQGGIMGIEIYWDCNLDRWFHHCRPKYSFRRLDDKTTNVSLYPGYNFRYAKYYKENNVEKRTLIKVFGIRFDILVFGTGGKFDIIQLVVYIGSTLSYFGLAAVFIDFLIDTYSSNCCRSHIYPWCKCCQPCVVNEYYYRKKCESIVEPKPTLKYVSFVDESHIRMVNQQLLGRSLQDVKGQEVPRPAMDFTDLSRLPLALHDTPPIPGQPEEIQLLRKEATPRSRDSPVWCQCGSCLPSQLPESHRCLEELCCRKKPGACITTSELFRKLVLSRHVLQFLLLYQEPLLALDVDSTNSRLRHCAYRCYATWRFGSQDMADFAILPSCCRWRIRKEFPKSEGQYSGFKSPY
Test: Antagonist activity at human P2X7 receptor expressed in HEK293 cells assessed as inhibition of BzATP-induced calcium influx
Assay type: functional, cell-based
FYI, pIC50 means -log10 of a concentration in mol per litre.

Illustrative cases are given below, each with its answer.
input_smiles=CN([C@@H](Cc1ccc(OS(=O)(=O)c2cccc3cnccc23)cc1)C(=O)N1CCC(Cc2ccccc2)CC1)S(=O)(=O)c1cccc2cnccc12 target_desc="P2X purinoceptor 7 (Homo sapiens, UniProt Q99572)" measured_property=pIC50 observed_value=7.20
input_smiles=O=C(CNS(=O)(=O)c1cccc2cnccc12)N1CCN(c2ccccc2F)CC1 target_desc="P2X purinoceptor 7 (Homo sapiens, UniProt Q99572)" measured_property=pIC50 observed_value=7.90
input_smiles=CN([C@@H](Cc1ccc(OS(=O)(=O)c2cccc3cnccc23)cc1)C(=O)N1CCN(CCc2ccccc2)CC1)S(=O)(=O)c1cccc2cnccc12 target_desc="P2X purinoceptor 7 (Homo sapiens, UniProt Q99572)" measured_property=pIC50 observed_value=6.20
input_smiles=CN([C@@H](Cc1ccc(OS(=O)(=O)c2cccc3cnccc23)cc1)C(=O)N1CCN(c2ccc(Cl)cc2)CC1)S(=O)(=O)c1cccc2cnccc12 target_desc="P2X purinoceptor 7 (Homo sapiens, UniProt Q99572)" measured_property=pIC50 observed_value=7.00
input_smiles=O=C([C@H](Cc1ccc(OS(=O)(=O)c2cccc3cnccc23)cc1)NS(=O)(=O)c1cccc2cnccc12)N1CCN(c2ccc(F)cc2)CC1 target_desc="P2X purinoceptor 7 (Homo sapiens, UniProt Q99572)" measured_property=pIC50 observed_value=8.20
input_smiles=Cc1ccccc1N1CCN(C(=O)[C@H](Cc2ccc(OS(=O)(=O)c3cccc4cnccc34)cc2)N(C)S(=O)(=O)c2cccc3cnccc23)CC1 target_desc="P2X purinoceptor 7 (Homo sapiens, UniProt Q99572)" measured_property=pIC50 observed_value=7.80
input_smiles=CN([C@@H](Cc1ccc(OS(=O)(=O)c2cccc3cnccc23)cc1)C(=O)N1CCN(c2ccccc2)CC1)S(=O)(=O)c1cccc2cnccc12 target_desc="P2X purinoceptor 7 (Homo sapiens, UniProt Q99572)" measured_property=pIC50 observed_value=7.30
input_smiles=O=C(CNS(=O)(=O)c1cccc2cnccc12)N1CCN(c2ccc(F)cc2)CC1 target_desc="P2X purinoceptor 7 (Homo sapiens, UniProt Q99572)" measured_property=pIC50 observed_value=7.20
input_smiles=CN([C@@H](Cc1ccc(OS(=O)(=O)c2cccc3cnccc23)cc1)C(=O)N1CCN(Cc2ccccc2)CC1)S(=O)(=O)c1cccc2cnccc12 target_desc="P2X purinoceptor 7 (Homo sapiens, UniProt Q99572)" measured_property=pIC50 observed_value=7.70
input_smiles=O=C(CNS(=O)(=O)c1cccc2cnccc12)N1CCN(Cc2ccccc2)CC1 target_desc="P2X purinoceptor 7 (Homo sapiens, UniProt Q99572)" measured_property=pIC50 observed_value=7.50

Problem: Fill in the blank: the reported pIC50 of `CN([C@@H](Cc1ccc(OS(=O)(=O)c2cccc3cnccc23)cc1)C(=O)N1CCN(c2ccc(F)cc2)CC1)S(=O)(=O)c1cccc2cnccc12` is ____.
Solution: 8.90

Problem: Fill in the blank: the reported pIC50 of `CN([C@@H](Cc1ccc(OS(=O)(=O)c2cccc3cnccc23)cc1)C(=O)N1CCN(c2cccc(Cl)c2)CC1)S(=O)(=O)c1cccc2cnccc12` is ____.
Solution: 7.90

Problem: Fill in the blank: the reported pIC50 of `O=C(CNS(=O)(=O)c1cccc2cnccc12)N1CCN(c2ccc([N+](=O)[O-])cc2)CC1` is ____.
Solution: 7.70
